The measurements presented in this section are drawn from ChEMBL document CHEMBL1201862.

system: U-251; assay: NCI tumour cell line growth inhibition, 48 h
Active and inactive are the calls of the source. Cut-off read from the data, not from the text of the source: active = GI50 up to about 1.1 µM and inactive = higher.
quantity-name: GI50

Study these solved cases before continuing.
>>> print(df.to_string())
                                   compound      value_measured
0  C[Si](C)(C)/C=C/CCC(C=O)(CCCl)c1ccccc1 (stereo not drawn)  15.7 µM (inactive)
1  CCOC(=O)C1(Cc2ccccc2)C=CN(C(=O)c2ccccc2)C=C1  29.2 µM (inactive)

Could you now look at the following compound, please?
Log: U-251, compound CC(=O)O[C@H]1CC[C@@]2(C)C(=CC[C@H]3[C@@H]4C[C@H](N5CCN(C)CC5)[C@H](OC(C)=O)[C@@]4(C)CC[C@@H]32)C1 , GI50 = 19.7 µM (inactive)
